These records show IC50 for GSK-3β (Homo sapiens, UniProt P49841).
MEASURE_NAME: IC50 (µM)

COMPOUND	RECORDED_RESULT
O=C(Nc1ccccn1)C1CCN(C(=O)CCc2ccccc2F)C1 (centres unmarked)	15.2
O=C(Nc1ccccn1)C1CCN(C(=O)COc2ccccc2F)C1 (centres unmarked)	38.1
